Target: Fibroblast growth factor receptor 3 (Homo sapiens) (UniProt P22607)
Sequence (P22607 23-806 limits assumed): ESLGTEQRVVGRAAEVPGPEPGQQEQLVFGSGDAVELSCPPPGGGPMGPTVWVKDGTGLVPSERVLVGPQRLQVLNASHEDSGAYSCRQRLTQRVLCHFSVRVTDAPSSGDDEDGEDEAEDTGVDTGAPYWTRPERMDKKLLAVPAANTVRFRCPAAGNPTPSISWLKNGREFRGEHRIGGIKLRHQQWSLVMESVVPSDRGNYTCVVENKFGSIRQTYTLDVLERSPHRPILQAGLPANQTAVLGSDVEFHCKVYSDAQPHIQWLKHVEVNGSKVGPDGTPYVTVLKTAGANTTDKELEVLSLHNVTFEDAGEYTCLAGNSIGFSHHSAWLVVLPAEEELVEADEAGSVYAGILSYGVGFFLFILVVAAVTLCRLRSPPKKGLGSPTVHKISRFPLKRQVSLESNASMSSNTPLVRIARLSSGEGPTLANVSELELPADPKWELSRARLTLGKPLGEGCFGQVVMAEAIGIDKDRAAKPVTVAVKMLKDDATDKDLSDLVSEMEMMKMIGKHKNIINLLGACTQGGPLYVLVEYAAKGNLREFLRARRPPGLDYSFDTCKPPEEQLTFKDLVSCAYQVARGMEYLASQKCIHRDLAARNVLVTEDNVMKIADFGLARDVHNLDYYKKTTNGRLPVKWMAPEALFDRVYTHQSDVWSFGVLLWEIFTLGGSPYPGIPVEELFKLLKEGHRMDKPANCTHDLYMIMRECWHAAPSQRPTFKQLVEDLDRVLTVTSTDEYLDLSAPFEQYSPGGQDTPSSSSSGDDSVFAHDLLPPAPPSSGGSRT
Details: Compound concentration 20.0 uM, Protein concentration 2.0 uM, Result type QC Liability
Description: Thermal Shift Assay. Domain: start/stop: P449-E759

- molecule: "COc1cc(F)ccc1-c1ncnc(Nc2cccc(C[S@](C)(=N)=O)c2)n1"
  target-or-test-system: "Fibroblast growth factor receptor 3 (Homo sapiens) (UniProt P22607)"
  scale-unit: "°C"
  ΔTm: 1.31
- molecule: "OCC1OC(n2cnc3cc(Cl)c(Cl)cc32)C(O)C1O (configuration not stated)"
  target-or-test-system: "Fibroblast growth factor receptor 3 (Homo sapiens) (UniProt P22607)"
  scale-unit: "°C"
  ΔTm: 0.39
- molecule: "C=CC(=O)N1CCC[C@@H](n2nc(-c3ccc(Oc4ccccc4)cc3)c3c(N)ncnc32)C1"
  target-or-test-system: "Fibroblast growth factor receptor 3 (Homo sapiens) (UniProt P22607)"
  scale-unit: "°C"
  ΔTm: -1.1
- molecule: "COc1nc2ccc([C@@](O)(c3ccc(Cl)cc3)c3cncn3C)cc2c(Cl)c1Cc1ccc(-n2cccn2)cc1"
  target-or-test-system: "Fibroblast growth factor receptor 3 (Homo sapiens) (UniProt P22607)"
  scale-unit: "°C"
  ΔTm: -1.77
- molecule: "N[C@H](C(=O)O)[C@@H]1CC(Cl)=NO1"
  target-or-test-system: "Fibroblast growth factor receptor 3 (Homo sapiens) (UniProt P22607)"
  scale-unit: "°C"
  ΔTm: 0.45
- molecule: "Cc1ccc(NC(=O)c2ccc(CN3CC[C@H](N(C)C)C3)c(C(F)(F)F)c2)cc1Nc1nccc(-c2cncnc2)n1"
  target-or-test-system: "Fibroblast growth factor receptor 3 (Homo sapiens) (UniProt P22607)"
  scale-unit: "°C"
  ΔTm: 0.68
- molecule: "O[C@]1(C(F)(F)F)CCCC[C@H]1Nc1ccc(F)cc1"
  target-or-test-system: "Fibroblast growth factor receptor 3 (Homo sapiens) (UniProt P22607)"
  scale-unit: "°C"
  ΔTm: 0.58

---

Target: Peregrin (Homo sapiens) (UniProt P55201)
Sequence (whole entry): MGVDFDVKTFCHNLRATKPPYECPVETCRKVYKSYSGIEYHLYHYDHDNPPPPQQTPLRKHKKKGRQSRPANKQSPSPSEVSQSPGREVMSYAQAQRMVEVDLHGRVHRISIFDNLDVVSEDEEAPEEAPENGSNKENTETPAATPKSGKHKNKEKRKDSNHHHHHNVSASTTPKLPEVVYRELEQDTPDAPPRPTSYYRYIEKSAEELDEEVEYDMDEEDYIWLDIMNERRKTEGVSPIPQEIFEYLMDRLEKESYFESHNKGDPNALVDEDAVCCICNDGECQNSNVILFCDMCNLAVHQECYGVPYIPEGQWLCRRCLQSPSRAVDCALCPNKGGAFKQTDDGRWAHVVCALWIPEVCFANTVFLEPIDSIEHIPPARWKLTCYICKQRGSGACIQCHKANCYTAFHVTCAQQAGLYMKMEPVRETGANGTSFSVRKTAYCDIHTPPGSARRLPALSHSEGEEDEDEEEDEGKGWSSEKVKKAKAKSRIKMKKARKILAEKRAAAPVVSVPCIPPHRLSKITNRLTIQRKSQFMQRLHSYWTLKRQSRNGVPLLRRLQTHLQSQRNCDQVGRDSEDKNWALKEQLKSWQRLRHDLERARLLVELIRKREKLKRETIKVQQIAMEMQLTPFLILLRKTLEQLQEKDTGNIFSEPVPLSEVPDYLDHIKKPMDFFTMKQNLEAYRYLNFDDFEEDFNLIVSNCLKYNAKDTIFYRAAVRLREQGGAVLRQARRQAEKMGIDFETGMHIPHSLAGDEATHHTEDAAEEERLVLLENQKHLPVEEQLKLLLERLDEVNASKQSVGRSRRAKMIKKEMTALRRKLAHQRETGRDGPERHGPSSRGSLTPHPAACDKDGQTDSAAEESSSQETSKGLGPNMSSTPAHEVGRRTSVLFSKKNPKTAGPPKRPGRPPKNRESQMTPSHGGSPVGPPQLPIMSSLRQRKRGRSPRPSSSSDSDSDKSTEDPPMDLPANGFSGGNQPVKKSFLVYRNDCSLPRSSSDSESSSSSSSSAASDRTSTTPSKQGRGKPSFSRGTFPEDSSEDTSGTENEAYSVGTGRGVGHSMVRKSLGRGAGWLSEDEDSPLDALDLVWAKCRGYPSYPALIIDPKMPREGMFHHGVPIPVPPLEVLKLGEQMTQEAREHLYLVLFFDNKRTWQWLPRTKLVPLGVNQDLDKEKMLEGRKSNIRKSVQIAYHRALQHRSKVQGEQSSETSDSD
Settings: Compound concentration 20.0 uM, Protein concentration 2.0 uM, Result type QC Liability
Under this convention, y denotes ΔTm strictly below -2 °C and n denotes ΔTm at or above -2 °C.

- compound: "CCn1c(CNC(=O)c2ncc(C)nc2N)[n+](CC)c2ccc(C(=O)N(C)CCN(C)C)cc21"
  target-or-test-system: "Peregrin (Homo sapiens) (UniProt P55201)"
  class-assignment: "n"
- compound: "CC(=O)N(CCN(C)C)c1ccc(N/C(=C2\\C(=O)Nc3cc(Cl)ccc32)c2ccccc2)cn1"
  target-or-test-system: "Peregrin (Homo sapiens) (UniProt P55201)"
  class-assignment: "n"
- compound: "CC(C)N(C(=O)C1CCOCC1)c1cc(F)c(Oc2ncc(Cn3nccn3)cc2C(F)(F)F)cc1C(=O)O"
  target-or-test-system: "Peregrin (Homo sapiens) (UniProt P55201)"
  class-assignment: "y"
- compound: "O=C(O)c1cc(-c2ccccc2)ccc1O"
  target-or-test-system: "Peregrin (Homo sapiens) (UniProt P55201)"
  class-assignment: "n"
- compound: "CNC(=O)c1cc(C(=O)N[C@H]2[C@@H]3COC[C@@H]32)cc2c1O[C@@H](CF)[C@@H]2c1ccccc1"
  target-or-test-system: "Peregrin (Homo sapiens) (UniProt P55201)"
  class-assignment: "n"
- compound: "O=C(O)c1cc(F)c2nc(N3[C@@H]4CC[C@H]3C[C@@H](OCc3c(-c5ccccc5OC(F)(F)F)noc3C3CC3)C4)sc2c1"
  target-or-test-system: "Peregrin (Homo sapiens) (UniProt P55201)"
  class-assignment: "y"
- compound: "C[C@]12CC[C@@H]3c4ccc(O)cc4CC[C@H]3[C@@H]1C[C@H]1OC(=O)C[C@]12O"
  target-or-test-system: "Peregrin (Homo sapiens) (UniProt P55201)"
  class-assignment: "n"
- compound: "C[C@@H]1CC[C@@]2(OC1)O[C@H]1[C@@H](O)[C@H]3[C@@H]4CC[C@H]5C[C@@H](O[C@@H]6O[C@H](CO)[C@H](O[C@@H]7O[C@H](CO)C(O)[C@H](O[C@@H]8OC[C@@H](O)[C@H](O)[C@H]8O)[C@H]7O[C@@H]7O[C@H](CO)[C@H](O)[C@H](O[C@@H]8O[C@H](CO)[C@@H](O)[C@H](O)[C@H]8O)[C@H]7O)[C@H](O)[C@H]6O)[C@H](O)C[C@]5(C)[C@H]4CC[C@]3(C)[C@H]1[C@@H]2C (some centres undefined)"
  target-or-test-system: "Peregrin (Homo sapiens) (UniProt P55201)"
  class-assignment: "n"
- compound: "CNC(=O)COc1cc2cc(Nc3nc(N4CCC(C(=O)N(C)C)CC4)ncc3Cl)cc(OC)c2n(C)c1=O"
  target-or-test-system: "Peregrin (Homo sapiens) (UniProt P55201)"
  class-assignment: "y"
- compound: "O=C(CCCN1CCC(O)(c2ccc(Cl)cc2)CC1)c1ccc(F)cc1"
  target-or-test-system: "Peregrin (Homo sapiens) (UniProt P55201)"
  class-assignment: "n"
- compound: "CC(=O)c1c(C)c2cnc(Nc3ccc(N4CCN(CCCCNC(=O)COc5cccc6c5C(=O)N(C5CCC(=O)NC5=O)C6=O)CC4)cn3)nc2n(C2CCCC2)c1=O (centres undefined)"
  target-or-test-system: "Peregrin (Homo sapiens) (UniProt P55201)"
  class-assignment: "n"
- compound: "CN(C)C(=O)Cn1cc(-c2ccc(-c3cncc4ccccc34)cc2)cn1"
  target-or-test-system: "Peregrin (Homo sapiens) (UniProt P55201)"
  class-assignment: "y"
- compound: "Cc1cc(CN)cc(C)c1-c1ncn(C)c1-c1ccnc2cc(F)ccc12"
  target-or-test-system: "Peregrin (Homo sapiens) (UniProt P55201)"
  class-assignment: "y"
- compound: "O=C(O)c1ccc(OCCCc2ccc(OCCCCOC3CCCCC3)cc2)c(C(=O)NC2CCCC(C(=O)O)C2)c1 (centres undefined)"
  target-or-test-system: "Peregrin (Homo sapiens) (UniProt P55201)"
  class-assignment: "y"
- compound: "Cc1cc2nc(N3CCC(C(=O)NC4CCCC4)CC3)n(C(C)C)c2cc1C"
  target-or-test-system: "Peregrin (Homo sapiens) (UniProt P55201)"
  class-assignment: "y"
- compound: "N#CN1CC[C@@H](C(=O)Nc2nc3c(s2)CN(C(=O)CN=[N+]=[N-])CC3)C1"
  target-or-test-system: "Peregrin (Homo sapiens) (UniProt P55201)"
  class-assignment: "n"
- compound: "COc1cc(-c2cncc(-c3cnn(C4CCNCC4)c3)c2)cc(OC)c1OC"
  target-or-test-system: "Peregrin (Homo sapiens) (UniProt P55201)"
  class-assignment: "n"
- compound: "Cc1nc2ccc(Oc3ccc(F)cc3)cc2c(=O)n1C[C@H]1CCCN(C(C)C)C1"
  target-or-test-system: "Peregrin (Homo sapiens) (UniProt P55201)"
  class-assignment: "y"
- compound: "C[C@]12CC[C@@H]3c4ccc(C(N)=O)cc4CC[C@H]3[C@@H]1CC=C2c1cncc(F)c1"
  target-or-test-system: "Peregrin (Homo sapiens) (UniProt P55201)"
  class-assignment: "y"
